Experiment: cytotoxicity in HPDE-C7 cells, cell-based, fluorescence, HTS (AID 430);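 also: cells exposed to compound for 48 hours before viability readout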
Settings: HPDE-C7 pancreatic duct cells viability, at 10 µM
In all, about 63,000 compounds went through this assay and about 1,100 (1.7%) were called active. Rule as the data show it: active = cytotoxicity above about 50%; inactive = the rest. The full list was thinned out, with actives kept by preference. Entries with a potency or affinity are not part of this list.
Outcome (select one): TRUE for active, FALSE for inactive

| compound | discreteLabel |
| --- | --- |
| CC1(C)Cc2c(C#N)c(SCc3ccccc3)nc(N3CCOCC3)c2CO1 | FALSE |
| CCNC(=O)C1CC(=O)N(Cc2ccc3c(c2)OCO3)C(=Nc2ccc(F)cc2)S1 (stereo unspecified) | TRUE |
| CN1Cc2c(N3CCOCC3)nc(SCc3ccccc3)c(C#N)c2CC1(C)C | TRUE |
| CCC(=O)NC1=C(C#N)C2(CCCC2)Cc2ccccc21 | FALSE |
| CC1(C)Cc2c(C#N)c(SCCOc3ccccc3)nc(N3CCOCC3)c2CO1 | TRUE |

Please indicate how the test categorized CCCCCSc1nc(N2CCOCC2)c2c(c1C#N)CC(C)(C)OC2 .
FALSE

Moving on to O=C(CN1C(=O)C2CC=C(Cl)CC2C1=O)N1CCOCC1 (stereo unspecified)
FALSE

Moving on to CNC(=O)C1CC(=O)N(Cc2ccc3c(c2)OCO3)C(=Nc2ccc(F)cc2)S1 (stereo unspecified)
FALSE

Moving on to CC1(C)Cc2c(C#N)c(SCC(=O)c3ccccc3)nc(N3CCOCC3)c2CO1
FALSE

Moving on to O=C(NCC(c1cccnc1)N1CCOCC1)c1cccs1 (stereo unspecified)
FALSE

Moving on to N#Cc1c(SCc2ccccc2)nc(N2CCOCC2)c2c1CCCC2
FALSE

The origin of these recorded values is PubChem BioAssay AID430.
